Exercise: for every item that follows, state its recorded IC50.
- Method notes: In-vitro inhibitory concentration for human tumor HELA cell-line was determined using MTT assay after 3 days of incubation
- Format: functional, cell-based
- Study conditions: 72 h
Reply numerically in nM, unit not repeated.

Challenge: Specify IC50 for CC[C@@]1(O)C(=O)OCc2c1cc1n(c2=O)Cc2cc3c(ccc4occc43)nc2-1 and stop.
Response given: 15

Challenge: Specify IC50 for CCc1c2c(nc3ccc4c(c13)CC(C)O4)-c1cc3c(c(=O)n1C2)COC(=O)[C@]3(O)CC (stereo not given in full) and stop.
Response given: 19

Challenge: Specify IC50 for CCc1c2c(nc3ccc4occc4c13)-c1cc3c(c(=O)n1C2)COC(=O)[C@]3(O)CC and stop.
Response given: 2.3

Challenge: Specify IC50 for CC[C@@]1(O)C(=O)OCc2c1cc1n(c2=O)Cc2cc3c4c(ccc3nc2-1)OC(CO)C4 (stereo not given in full) and stop.
Response given: 25

Challenge: Specify IC50 for CC[C@@]1(O)C(=O)OCc2c1cc1n(c2=O)Cc2cc3c4c(ccc3nc2-1)OC(COC(C)=O)C4 (stereo not given in full) and stop.
Response given: 11

Challenge: Specify IC50 for CCc1c2c(nc3ccc4c(c13)CC(COC(C)=O)O4)-c1cc3c(c(=O)n1C2)COC(=O)[C@]3(O)CC (stereo not given in full) and stop.
Response given: 14

Challenge: Specify IC50 for CC[C@@]1(O)C(=O)OCc2c1cc1n(c2=O)Cc2cc3c4c(ccc3nc2-1)OC(C)C4 (stereo not given in full) and stop.
Response given: 10

Challenge: Specify IC50 for CCc1c2c(nc3ccc(O)cc13)-c1cc3c(c(=O)n1C2)COC(=O)[C@]3(O)CC [7-ETHYL-10-HYDROXYCAMPTOTHECIN] and stop.
Response given: 22

Challenge: Specify IC50 for CCc1c2c(nc3ccc4c(c13)CC(CO)O4)-c1cc3c(c(=O)n1C2)COC(=O)[C@]3(O)CC (stereo not given in full) and stop.
Response given: 23

Challenge: Specify IC50 for CCc1c2c(nc3ccc4c(c13)CC(O)O4)-c1cc3c(c(=O)n1C2)COC(=O)[C@]3(O)CC (stereo not given in full) and stop.
Response given: 20

---

- Tested on: HL-60
- Method notes: In-vitro inhibitory concentration for human tumor HL60 cell-line was determined using […] assay after 3 days of incubation
- Format: functional, cell-based
- Study conditions: HL-60, 72 h
So basically, if IC50 comes in under 9 nM it's class 1, and if it's 9 nM or more it's class 0.

Challenge: State whether 9 nM exceeds IC50 recorded for CCc1c2c(nc3ccc(O)cc13)-c1cc3c(c(=O)n1C2)COC(=O)[C@]3(O)CC [7-ETHYL-10-HYDROXYCAMPTOTHECIN] .
Response given: class 0

Challenge: State whether 9 nM exceeds IC50 recorded for CCc1c2c(nc3ccc4c(c13)CC(O)O4)-c1cc3c(c(=O)n1C2)COC(=O)[C@]3(O)CC (stereo partly drawn) .
Response given: class 1

Challenge: State whether 9 nM exceeds IC50 recorded for CC[C@@]1(O)C(=O)OCc2c1cc1n(c2=O)Cc2cc3c4c(ccc3nc2-1)OC(CO)C4 (stereo partly drawn) .
Response given: class 1

Challenge: State whether 9 nM exceeds IC50 recorded for CCc1c2c(nc3ccc4c(c13)CC(CO)O4)-c1cc3c(c(=O)n1C2)COC(=O)[C@]3(O)CC (stereo partly drawn) .
Response given: class 1

Challenge: State whether 9 nM exceeds IC50 recorded for CC[C@@]1(O)C(=O)OCc2c1cc1n(c2=O)Cc2cc3c4c(ccc3nc2-1)OC(COC(C)=O)C4 (stereo partly drawn) .
Response given: class 0

Challenge: State whether 9 nM exceeds IC50 recorded for CC[C@@]1(O)C(=O)OCc2c1cc1n(c2=O)Cc2cc3c(ccc4occc43)nc2-1 .
Response given: class 1

Challenge: State whether 9 nM exceeds IC50 recorded for CCc1c2c(nc3ccc4c(c13)CC(C)O4)-c1cc3c(c(=O)n1C2)COC(=O)[C@]3(O)CC (stereo partly drawn) .
Response given: class 1

Numbers sourced from ChEMBL document CHEMBL1144359.
